# measurementNotes: in vitro
# setupConditions: CD-1, mouse, plasma
Measured fraction unbound at 2 μM, listed per entry for reference.
// no unit string in output, number only

Known fraction unbound at 2 μM results, listed for orientation:
[
  {
    "smilesNotation": "C#CC(=O)N1[C@@H](CCCC)Cc2c([nH]c3c(F)cc(F)cc23)[C@@H]1c1ccc(N)cc1",
    "endpointValue": 0.097
  },
  {
    "smilesNotation": "C#CC(=O)N1[C@@H](CCCC)Cc2c([nH]c3c(F)cc(F)cc23)[C@@H]1C1CCCCC1",
    "endpointValue": 0.11
  }
]

Note: attention shifts to another entry.
Exam item: For C#CC(=O)N1[C@@H](CCCC)Cc2c([nH]c3c(F)cc(F)cc23)[C@@H]1c1ccc(N2CCN(C)CC2)c(F)c1 , what is its reported fraction unbound at 2 μM?
Marked response: 0.083

All figures here come from patent US20220227765A1.
